Molecular target: T1, human Nectin-4 extracellular antigen hNectin-4-His (human, UniProt Q96NY8 32-349)
T1 construct: C-terminal 8xHis tag included
T1 sequence: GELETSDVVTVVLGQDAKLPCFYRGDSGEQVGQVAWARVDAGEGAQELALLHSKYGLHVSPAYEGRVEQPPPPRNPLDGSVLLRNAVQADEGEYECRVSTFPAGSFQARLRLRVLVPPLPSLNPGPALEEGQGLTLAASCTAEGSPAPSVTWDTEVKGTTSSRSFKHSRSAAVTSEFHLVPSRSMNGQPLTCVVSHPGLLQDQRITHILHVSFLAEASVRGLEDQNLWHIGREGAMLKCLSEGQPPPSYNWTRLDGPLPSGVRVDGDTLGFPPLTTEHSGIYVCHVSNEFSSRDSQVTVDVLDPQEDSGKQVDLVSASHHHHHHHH
Experiment: ELISA, phage scFv supernatant 1:50
REPORTED_ENDPOINT: OD value (OD)
Unit OD implied. Number only.

Some binders with recorded OD value:
Q: May I ask what OD value has been recorded for 10F4-2A1 scFv (scFv, V domains shown, phage clone supernatant) VH: EVQLVESGGGLVQPGGSLRLSCAASGYTFDDYDMSWVRQAPGKGLEWVSGIKAHSDNKRYADSVKGRFTISRDNSKNTLYLQMNSLRAEDTAVYYCAREYSDVVDYVSVRTPLDYWGQGTLVTVSS VL: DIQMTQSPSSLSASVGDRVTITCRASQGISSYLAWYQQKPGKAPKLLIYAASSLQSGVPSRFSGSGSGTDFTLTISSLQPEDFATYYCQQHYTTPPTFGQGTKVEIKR ?
Ans: 1.76

Q: May I ask what OD value has been recorded for 10F4-1C7 scFv (scFv, V domains shown, phage clone supernatant) VH: EVQLVESGGGLVQPGGSLRLSCAASGDSFDNYWMSWVRQAPGKGLEWVSAIDTHSDNSFYADSVKGRFTISRDNSKNTLYLQMNSLRAEDTAVYYCAREYSDVVDYVSVRTPLDYWGQGTLVTVSS VL: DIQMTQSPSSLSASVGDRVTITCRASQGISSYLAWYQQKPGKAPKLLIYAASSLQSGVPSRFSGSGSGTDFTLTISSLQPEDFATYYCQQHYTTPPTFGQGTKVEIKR ?
Ans: 1.57

Q: May I ask what OD value has been recorded for 10F4-2G2 scFv (scFv, V domains shown, phage clone supernatant) VH: EVQLVESGGGLVQPGGSLRLSCAASGYNFTDYDMSWVRQAPGKGLEWVSSIIASGSGNYYADSVKGRFTISRDNSKNTLYLQMNSLRAEDTAVYYCAREYSDVVDYVSVRTPLDYWGQGTLVTVSS VL: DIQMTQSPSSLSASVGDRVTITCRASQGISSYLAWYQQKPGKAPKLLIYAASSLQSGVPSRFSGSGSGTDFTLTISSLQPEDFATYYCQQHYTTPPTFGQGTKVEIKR ?
Ans: 1.49

Q: May I ask what OD value has been recorded for 1G8-2A1 scFv (scFv, V domains shown, phage clone supernatant) VH: EVQLVESGGGLVQPGGSLRLSCAASGYSFDGFAMSWVRQAPGKGLEWVSRISGHDWSSSYADSVKGRFTISRDNSKNTLYLQMNSLRAEDTAVYYCARQTEDRSYGYDLDYWGQGTLVTVSS VL: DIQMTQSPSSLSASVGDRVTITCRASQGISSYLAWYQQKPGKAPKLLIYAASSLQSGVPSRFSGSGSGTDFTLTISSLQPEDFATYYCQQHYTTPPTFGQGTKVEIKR ?
Ans: 1.6

New cases:
Q: May I ask what OD value has been recorded for 1G8-2D7 scFv (scFv, V domains shown, phage clone supernatant) VH: EVQLVESGGGLVQPGGSLRLSCAASGDSFTSYAMSWVRQAPGKGLEWVSRISADSASPSYADSVKGRFTISRDNSKNTLYLQMNSLRAEDTAVYYCARQTEDRSYGYDLDYWGQGTLVTVSS VL: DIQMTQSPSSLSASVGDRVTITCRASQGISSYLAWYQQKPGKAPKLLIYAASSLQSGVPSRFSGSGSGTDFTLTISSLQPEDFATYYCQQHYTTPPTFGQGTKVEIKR ?
Ans: 1.54
